tested on: Staphylococcus aureus; assay: Antibacterial activity against methicillin-resistant Staphylococcus aureus ATCC BAA-44 assessed as inhibition of biofilm growth after 24 hrs by crystal violet reporter assay; assay type: functional, organism-based; details: ATCC BAA-44, 24 h
Lab note: anything with IC50 below 9 µM is marked yes; values at 9 µM or higher are marked no.

>>> qualitative_label("CCCCCc1ccc(C(=O)NCCn2cc(CCCCCc3cn(-c4ccccc4)c(N)n3)nn2)cc1.Cl")
"no"
>>> qualitative_label("CCCCCc1ccc(C(=O)NCCn2cc(CCCCCc3cn(CCCCC)c(N)n3)nn2)cc1.Cl")
"yes"
>>> qualitative_label("CCCCCc1ccc(C(=O)NCCn2cc(CCCCCc3cn(C4CCCCC4)c(N)n3)nn2)cc1.Cl")
"no"
>>> qualitative_label("C=CCn1cc(CCCCCc2cn(CCNC(=O)c3ccc(CCCCC)cc3)nn2)nc1N.Cl")
"no"
>>> qualitative_label("CCCCCc1ccc(C(=O)NCCn2cc(CCCCCc3cn(CCc4ccccc4)c(N)n3)nn2)cc1.Cl")
"no"
>>> qualitative_label("CCCCCc1ccc(C(=O)NCCn2cc(CCCCCc3cn(Cc4ccccc4)c(N)n3)nn2)cc1.Cl")
"yes"
>>> qualitative_label("CCCCCc1ccc(C(=O)NCCn2cc(CCCCCc3cn(C4CC4)c(N)n3)nn2)cc1.Cl")
"no"

Next molecule, please.
A record lists `CCCCCCn1cc(CCCCCc2cn(CCNC(=O)c3ccc(CCCCC)cc3)nn2)nc1N.Cl` . Is its IC50 below 9 µM?
yes

---

The entries below come with measured pIC50 values attached.
tested on: Staphylococcus aureus; test: Antibacterial activity against methicillin-resistant Staphylococcus aureus ATCC BAA-44 assessed as inhibition of biofilm growth after 24 hrs by crystal violet reporter assay; format: functional, organism-based; settings: ATCC BAA-44, 24 h
Expect pIC50 as a plain number equal to -log10 of the molar concentration.

>>> numeric_value("CCCCCc1ccc(C(=O)NCCn2cc(CCCCCc3cn(CC(C)C)c(N)n3)nn2)cc1.Cl")
4.62

Now consider the entry below.
Give pIC50 for the following compound: `CCCCCc1ccc(C(=O)NCCn2cc(CCCCCc3cn(CCCC)c(N)n3)nn2)cc1.Cl`
4.97

---

Documented fold change (FC) across a set of molecules
test system: Staphylococcus aureus; assay: Antibacterial activity against methicillin-resistant Staphylococcus aureus ATCC BAA-44 assessed as reduction of oxacillin MIC at 25% MIC by broth microdilution method relative to oxacillin-treated control; format: functional
Answer using only a numeral; do not append any unit.

These solved cases illustrate the format of a correct answer.
>>> numeric_value("CCCCCc1ccc(C(=O)NCCn2cc(CCCCCc3cn(C4CC4)c(N)n3)nn2)cc1.Cl")
2
>>> numeric_value("C=CCn1cc(CCCCCc2cn(CCNC(=O)c3ccc(CCCCC)cc3)nn2)nc1N.Cl")
2
>>> numeric_value("CCCCCc1ccc(C(=O)NCCn2cc(CCCCCc3cn(CCCC)c(N)n3)nn2)cc1.Cl")
0
>>> numeric_value("CCCCCc1ccc(C(=O)NCCn2cc(CCCCCc3cn(Cc4ccccc4)c(N)n3)nn2)cc1.Cl")
0
>>> numeric_value("CCCCCc1ccc(C(=O)NCCn2cc(CCCCCc3cn(CCCCC)c(N)n3)nn2)cc1.Cl")
0
>>> numeric_value("CCCCCc1ccc(C(=O)NCCn2cc(CCCCCc3cn(C4CCCC4)c(N)n3)nn2)cc1.Cl")
2
>>> numeric_value("CCCCCc1ccc(C(=O)NCCn2cc(CCCCCc3cn(C(C)C)c(N)n3)nn2)cc1.Cl")
0
>>> numeric_value("CCCCCc1ccc(C(=O)NCCn2cc(CCCCCc3cn(-c4ccccc4)c(N)n3)nn2)cc1.Cl")
0
>>> numeric_value("CCCCCc1ccc(C(=O)NCCn2cc(CCCCCc3c[nH]c(N)n3)nn2)cc1.Cl")
4
>>> numeric_value("CCCCCCn1cc(CCCCCc2cn(CCNC(=O)c3ccc(CCCCC)cc3)nn2)nc1N.Cl")
0

We now examine a further molecule.
Give a short answer stating reported fold change (FC) for `CCCCCc1ccc(C(=O)NCCn2cc(CCCCCc3cn(CCc4ccccc4)c(N)n3)nn2)cc1.Cl` .
0

The measurements presented in this section are drawn from ChEMBL document CHEMBL2331213.
